test system: HCC-2998 colon; test: NCI tumour cell line growth inhibition, 48 h
Endpoint Name: TGI

- CC(=O)C1C(=O)C(=O)N(c2cccc([N+](=O)[O-])c2)C1=O (stereo not drawn): > 100 µM
- O=C(OCc1ccc2ccccc2n1)c1cn(C2CC2)c2cc(N3CCN(Cc4ccc5ccccc5n4)CC3)c(F)cc2c1=O: > 100 µM
- CCC(=O)C12OC3OC(C)(C)OC3C1OC(C)(C)O2 (stereo not drawn): > 100 µM

* * *

Quick reference: TGI of the listed items.
tested on: SK-OV-3 ovarian; test: NCI tumour cell line growth inhibition, 48 h
Endpoint Name: TGI

- CCCNC(=O)C(C)C1CCC2(C)C=CC(=O)C(C)=C2C1O (stereo not given): > 100 µM
- CO/N=C(/C)c1ccc(NC(=O)CSc2nnc(-c3ccncc3)n2-c2ccccc2)cc1: > 100 µM
- COc1cc2c(c(OC)c1OC)-c1ccc(SC)c(=O)cc1C(NC(=O)c1ccccc1)CC2 (stereo not given): 1.94 µM
- O=[N+]([O-])c1nccn1CCCNc1ccnc2cc(Cl)ccc12: > 100 µM
- CN1CCN(C(=O)c2cc(-c3ccc4ncnc(N5CCc6cc(F)c(Cl)cc65)c4c3)cnc2N)CC1: 2.21 µM
- O=S(=O)(Nc1cc(Sc2cccc3cccnc23)c(O)c2ccccc12)c1ccc(F)cc1: 13.4 µM
- C[N+](C)(C)CCc1ccccc1: > 100 µM
- COc1ccc(-c2cc(-c3ccc(C)cc3)nc3nc(=S)[nH]c(N)c23)cc1: > 100 µM
- NNC(=O)CS(=O)(=O)Nc1ncccn1: > 100 µM
- COc1ccc(C(=O)/C=C/c2ccc(O)c(O)c2)c(OC)c1: > 67.9 µM
- O=c1ssc(=Nc2ccccc2)n1-c1ccccc1: > 100 µM
- CC(=O)Nc1ccc(SC#N)c2c(NC(C)=O)cccc12: > 100 µM
- CN(C)CCCN1c2ccccc2Sc2ccc3ccccc3c21: 27.5 µM
- COc1cc(C(=O)C/C(CCC(=O)Nc2ccccc2[N+](=O)[O-])=N\NC(N)=O)ccc1O: > 100 µM
- CN=c1ccc2nc3ccc(N)cc3sc-2c1: 24.7 µM
- CC/C=C\C/C=C\C/C=C\CCCCCCCC(=O)OCC(O)CO (stereo not given): > 100 µM
- O=C(CSc1nnc(Cc2ccccc2)o1)Nc1ccccc1: > 100 µM
- CN(C)c1ccc(NN=C2SC(=Nc3ccccc3)C(=Nc3ccccc3)S2)cc1: > 100 µM
- CC#CCC1CCC(OCC)=CC1=O (stereo not given): > 100 µM
- O=C1NC(=O)C(N2C(=O)c3ccccc3C2=O)CC1O (stereo not given): > 100 µM

* * *

test system: RPMI-8226 leukemia; assay: NCI tumour cell line growth inhibition, 48 h
Quick reference for TGI among some compounds
Endpoint Name: TGI

• CN[C@@H](C)C(=O)N[C@H](C(=O)N1CCC[C@H]1C(=O)Nc1sc(-c2ncco2)nc1-c1ccccc1)C1CCCCC1 = > 89.9 µM
• COc1ccc2c(c1)N(CCO)C1=C(C(=O)OC1)C2c1cccc(F)c1 (stereo not drawn) = > 50 µM
• CN1C(=O)N(C)C2C1NN=c1s/c(=C\c3ccc(C(F)(F)F)cc3)c(=O)n12 (stereo not drawn) = > 100 µM

* * *

system: UO-31 renal; experiment: NCI tumour cell line growth inhibition, 48 h
Property: GI50; scope: individual compounds
Endpoint Name: GI50

• COc1cccc(OC(=O)c2ccc(C(F)(F)F)nc2Nc2cc(Cl)ccc2C)c1 = 5800 nM
• Fc1ccc(/C=N/n2c(-c3ccc(F)c(Cl)c3)nn(CNc3ccccc3C(F)(F)F)c2=S)cc1 = 34800 nM
• COc1cc2c(cc1OCCCn1c(-c3ccccn3)nc3ccccc31)N=C[C@@H]1CCCN1C2=O = 474 nM
• CN1CCN(C(=O)c2cc(-c3ccc4ncnc(N5CCc6cc(F)c(Cl)cc65)c4c3)cnc2N)CC1 = 99.6 nM
• CCCCCCCCCCCCCCCCCC1=NCCN1CCOC1=C(Cl)C(=O)c2ccccc2C1=O = 1370 nM
• O=C1CCC(N2Cc3cc(CNC(=O)C(F)(F)c4ccc(Cl)cc4)ccc3C2=O)C(=O)N1 (stereo unspecified) = 320 nM
• CN[C@@H](C)C(=O)N[C@H](C(=O)N1CCC[C@H]1C(=O)Nc1sc(-c2ncco2)nc1-c1ccccc1)C1CCCCC1 = 32100 nM
• O=C1/C(=C/c2ccccc2[N+](=O)[O-])Cc2ccccc21 = 1210 nM
• c1cnn2ncc(-c3ccnc(NCCCN4CCOCC4)n3)c2c1 = 5230 nM
• O=S(=O)(Nc1cc(Sc2cccc3cccnc23)c(O)c2ccccc12)c1ccc(F)cc1 = 1090 nM
• CC(=O)OC12C=C(C)C(C(C)C1)C1C(=O)N(CCN3CCOCC3)C(=O)C12 (stereo unspecified) = > 100000 nM
